Molecular target: T1, human CTGF (antigen of the Biacore assays) (human, UniProt P29279 27-349)
T1 construct: also called antigen human CTGF; human CTGF protein
T1 sequence (looked up): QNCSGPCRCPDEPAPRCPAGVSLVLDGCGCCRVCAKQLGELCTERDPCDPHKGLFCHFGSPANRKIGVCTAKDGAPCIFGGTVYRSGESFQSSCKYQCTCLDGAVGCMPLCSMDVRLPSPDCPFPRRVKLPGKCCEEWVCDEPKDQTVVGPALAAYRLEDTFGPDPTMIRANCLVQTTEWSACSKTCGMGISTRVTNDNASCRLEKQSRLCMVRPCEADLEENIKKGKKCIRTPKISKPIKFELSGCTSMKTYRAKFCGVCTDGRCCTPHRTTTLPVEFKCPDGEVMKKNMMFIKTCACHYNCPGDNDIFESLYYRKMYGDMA
Experiment: Biacore, antibody captured on Protein A, CTGF in flow, 1:1 fit
Description: A certain amount of each of the test antibodies was affinity-captured with Protein A biosensor chip (Cat. # 29127556, GE), and then a certain concentration of human or mouse CTGF was allowed to flow through the surface of the chip. The reaction signals were detected in real time with Biacore instrument to generate a binding and dissociation curve. […]
Measurement label: koff (s⁻¹)
Provide only the numeric value, understood in s⁻¹.

Binder: chimeric antibody Ch147 (antibody, human IgG1, kappa, V domains shown) VH: EVQLVESGGGLVQPEGSLKLSCAASGFSFNTYAMNWVRQAPGKGLEWVARIRTKSNNYATYYADSVKDRFTISRDDSESMLYLQMNNLKTEDTAMYYCVETGFAYWDQGTLVTVSA VL: QIVLTQSPAIMSASPGEKVTITCSASSSVSYMHWFQQKPGTSPKLWIYSTSNLASGVPARFSGSGSGTSYSLTISRMEAEDAATYYCQQRSSYPLTFGAGTKLELKR
koff, s⁻¹: 0.00693
//
Binder: Hu164-68wl (antibody, human IgG1, lambda, V domains shown) VH: EVTLKESGPVLVKPTETLTLTCTVSGFSLSTFGVHWIRQPPGKGLEWLGVIWRRGGTDYNAAFMSRLTISKDTSKSQVVFTMTNMDPVDTATYYCARDGGFDYWGQGTTVTVSS VL: ETVVTQEPSFSVSPGGTVTLTCRSSIGAVTTSNYANWVQQTPGQAFRGLIGGTSNRAPGVPDRFSGSILGNKAALTITGAQADDESDYYCALWYSTHYVFGGGTKLTVLG
koff, s⁻¹: 0.0116
//
Binder: Hu147-21wk (antibody, human IgG1, kappa, V domains shown) VH: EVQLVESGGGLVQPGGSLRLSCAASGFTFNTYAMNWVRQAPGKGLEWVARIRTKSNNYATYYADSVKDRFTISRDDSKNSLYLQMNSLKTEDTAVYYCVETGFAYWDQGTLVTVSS VL: EIVLTQSPATLSLSPGERATLSCSASSSVSYMHWFQQKPGQSPRLLIYSTSNLASGIPARFSGSGSGTDYTLTISSLEPEDFAVYYCQQRSSYPLTFGQGTKLEIKR
koff, s⁻¹: 0.0162
//
Binder: Hu147-13wk (antibody, human IgG1, kappa, V domains shown) VH: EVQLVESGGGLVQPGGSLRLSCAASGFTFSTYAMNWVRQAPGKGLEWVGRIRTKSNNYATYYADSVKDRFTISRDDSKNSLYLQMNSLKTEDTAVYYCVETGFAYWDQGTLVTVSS VL: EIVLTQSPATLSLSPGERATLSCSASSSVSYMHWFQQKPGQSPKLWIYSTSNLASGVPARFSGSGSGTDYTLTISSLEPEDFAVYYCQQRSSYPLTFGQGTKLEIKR
koff, s⁻¹: 0.024

Alright, here's another binder for you.
QUERY: For the binder shown here, Hu147-31wk (antibody, human IgG1, kappa, V domains shown) VH: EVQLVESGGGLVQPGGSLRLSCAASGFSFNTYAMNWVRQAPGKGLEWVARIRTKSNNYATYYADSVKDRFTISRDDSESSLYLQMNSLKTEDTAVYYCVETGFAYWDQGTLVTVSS VL: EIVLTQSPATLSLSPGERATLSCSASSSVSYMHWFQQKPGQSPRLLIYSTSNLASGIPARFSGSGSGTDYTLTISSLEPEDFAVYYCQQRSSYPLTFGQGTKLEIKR , give the reported koff.
RESULT: 0.0159
